system_tested: Bcl-xL (Homo sapiens)
procedure_summary: Bcl-xL binding affinity analysis (fluorescence polarization binding assay)
Design: scale not given here

molecule	Bcl-XL binding affinity Ki
CC(O)C1C(CO)ON(Cc2cccc(CN(CCN(C)C)Cc3cccc(O)c3)c2)C1C(=O)NC1CC2CC(C1C)C2(C)C (stereo not drawn)	♯
CC(O)C1C(CO)ON(Cc2cccc(CN(CCN3CCOCC3)Cc3ccccc3)c2)C1C(=O)NC1CC2CC(C1C)C2(C)C (stereo not drawn)	♯
C[C@@H]1[C@@H](NC(=O)[C@@H]2[C@H]([C@H](C)O)[C@H](CO)ON2Cc2cccc(N(CCCN(C)C)CCCN(C)C)c2)C[C@H]2C[C@@H]1C2(C)C	♯
C[C@@H]1[C@@H](NC(=O)[C@@H]2[C@H]([C@H](C)O)[C@H](CO)ON2Cc2cccc(CN(CCc3ccccc3)CCN(C)C)c2)C[C@H]2C[C@@H]1C2(C)C	♯
CC(C)CC(CN(C)C)N(Cc1cccc(CN2OC(CO)C(C(C)O)C2C(=O)NC2CC3CC(C2C)C3(C)C)c1)Cc1cccc2c1OCO2 (stereo not drawn)	♯
C[C@@H](O)[C@H]1[C@@H](CO)ON(Cc2cccc(C#CCNC(=O)c3ccccc3)c2)[C@H]1C(=O)NCCNCc1ccccc1	♯
C[C@H](O)[C@@H]1[C@H](CO)ON(Cc2cccc(C#C[C@]3(O)CC[C@H]4[C@@H]5CCc6cc(O)ccc6[C@H]5CC[C@@]43C)c2)[C@@H]1C(=O)NCCCN(C)c1ccccc1	♯
CC(O)C1C(CO)ON(Cc2cccc(CNC(CC3CCCCC3)CN(C)C)c2)C1C(=O)NC1CC2CC(C1C)C2(C)C (stereo not drawn) [Compound 444]	♯
CC(C)CC(CN(C)C)N(Cc1cccc(CN2OC(CO)C(C(C)O)C2C(=O)NC2CC3CC(C2C)C3(C)C)c1)Cc1c(F)cccc1C(F)(F)F (stereo not drawn)	♯
C[C@@H]1[C@@H](NC(=O)[C@@H]2[C@H]([C@H](C)O)[C@H](CO)ON2Cc2cccc(CN(CCN(C)C)C3CCCCC3)c2)C[C@H]2C[C@@H]1C2(C)C	♯
CC(O)C1C(CO)ON(Cc2cccc(CN(CCN(C)C)Cc3ccccc3C#N)c2)C1C(=O)NC1CC2CC(C1C)C2(C)C (stereo not drawn)	♯
C[C@@H]1[C@@H](NC(=O)[C@@H]2[C@H]([C@H](C)O)[C@H](CO)ON2Cc2cccc(-c3cccc(C(=O)NCCCN4CCCCC4)c3)c2)C[C@H]2C[C@@H]1C2(C)C	♯

----------
system_tested: Bcl-xL (Homo sapiens, UniProt Q07817)
Sequence (Q07817 whole entry): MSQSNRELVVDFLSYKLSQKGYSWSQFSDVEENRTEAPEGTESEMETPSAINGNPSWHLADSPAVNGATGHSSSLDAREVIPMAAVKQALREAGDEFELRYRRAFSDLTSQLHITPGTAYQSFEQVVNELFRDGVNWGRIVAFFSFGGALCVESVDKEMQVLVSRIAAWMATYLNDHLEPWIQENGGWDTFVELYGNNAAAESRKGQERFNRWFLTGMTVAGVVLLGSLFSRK
procedure_summary: Bcl-xL binding affinity analysis (fluorescence polarization binding assay)
Design: scale not given here
parameter: Bcl-XL binding affinity Ki

molecule	reported
C[C@@H]1[C@@H](NC(=O)[C@@H]2[C@H]([C@H](C)O)[C@H](CO)ON2Cc2cccc(-c3ccc(NS(C)(=O)=O)cc3)c2)C[C@H]2C[C@@H]1C2(C)C	♯♯
COC(=N)c1ccc(-c2cccc(CN3O[C@@H](CO)[C@@H]([C@H](C)O)[C@H]3C(=O)NC3C[C@@H]4CC([C@@H]3C)C4(C)C)c2)cc1 (stereo partly drawn)	♯
CC(C)C[C@@H](CN(C)C)N(Cc1ccccc1)Cc1cccc(CN2O[C@@H](CO)[C@@H]([C@H](C)O)[C@H]2C(=O)NCCCn2ccnc2)c1	♯
CC(O)C1C(CO)ON(Cc2cccc(CN(CCN(C)C)Cc3ccccc3C(F)(F)F)c2)C1C(=O)NC1CC2CC(C1C)C2(C)C (stereo not drawn)	♯
CC(C)C[C@@H](CN(C)C)N(Cc1ccccc1)Cc1cccc(CN2O[C@@H](CO)[C@@H]([C@H](C)O)[C@H]2C(=O)NCc2ccc(-c3ccccc3)cc2)c1	♯
CC(O)C1C(CO)ON(Cc2cccc(CNC(CCc3ccccc3)CN(C)C)c2)C1C(=O)NC1CC2CC(C1C)C2(C)C (stereo not drawn) [Compound 445]	♯
